# TESTED_TARGET: EphA2 endogenously expressed on PC3 prostate cancer cells (UniProt P29317 24-976, limits assumed)
# Sequence (P29317 24-976 limits assumed): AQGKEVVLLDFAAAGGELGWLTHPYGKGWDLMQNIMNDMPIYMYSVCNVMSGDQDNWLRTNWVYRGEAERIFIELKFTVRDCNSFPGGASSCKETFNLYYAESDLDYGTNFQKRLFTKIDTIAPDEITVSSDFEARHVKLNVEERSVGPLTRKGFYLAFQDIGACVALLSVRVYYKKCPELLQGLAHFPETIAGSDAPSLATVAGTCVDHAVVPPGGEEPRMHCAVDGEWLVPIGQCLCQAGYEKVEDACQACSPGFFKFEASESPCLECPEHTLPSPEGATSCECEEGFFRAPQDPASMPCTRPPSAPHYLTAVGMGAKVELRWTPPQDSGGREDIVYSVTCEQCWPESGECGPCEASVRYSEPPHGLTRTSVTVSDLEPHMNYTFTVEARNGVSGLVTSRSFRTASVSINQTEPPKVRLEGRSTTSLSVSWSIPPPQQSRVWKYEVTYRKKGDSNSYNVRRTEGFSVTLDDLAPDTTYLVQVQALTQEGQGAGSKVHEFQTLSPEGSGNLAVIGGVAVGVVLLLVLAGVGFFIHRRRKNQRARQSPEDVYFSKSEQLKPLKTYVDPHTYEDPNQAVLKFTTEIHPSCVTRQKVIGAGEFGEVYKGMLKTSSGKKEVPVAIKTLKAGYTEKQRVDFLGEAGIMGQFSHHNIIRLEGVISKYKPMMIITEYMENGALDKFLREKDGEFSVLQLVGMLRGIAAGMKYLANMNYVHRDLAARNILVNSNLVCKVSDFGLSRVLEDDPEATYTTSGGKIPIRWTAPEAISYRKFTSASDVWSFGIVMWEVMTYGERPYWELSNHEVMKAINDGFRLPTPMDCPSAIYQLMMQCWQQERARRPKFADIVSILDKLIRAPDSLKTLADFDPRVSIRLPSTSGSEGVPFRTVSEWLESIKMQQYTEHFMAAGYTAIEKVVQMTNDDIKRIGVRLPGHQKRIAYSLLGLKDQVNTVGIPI
# EXPERIMENTAL_DETAILS: cell-based or functional assay
Where no end group is shown, it is not given here. [ ]: non-standard residue; d: D form. The star is where a group is joined. Biotin = O=C1N[C@H]2[C@H](CS[C@H]2CCCCC(=O)*)N1; βAla = NCCC(=O)O; Cam = NC(=O)C*
READOUT_KIND: Etop pAKT inhib

# BINDER, Etop pAKT inhib
measured = [
    ("[βAla]WLAYPDSVPYRPKC (also: homodimer, disulfide at 15, other end not in the chain, C-terminally disulfide-linked homodimer made from monomer (19*); also called dimer (2); dimeric peptide (2)) [βA-WLA-YRPKC dimer (C-ter)]", 0.86),
    ("Lys-linked dimer (C-ter) (also: bond at chain A 15 to a chain's C-terminus) peptide 1: [βAla]WLAYPDSVPYRPKK peptide 2: [βAla]WLAYPDSVPYRPK", 1),
    ("CGAWLAYPDSVPYRPK (also: N-terminally disulfide-linked homodimer, disulfide at 1, other end not in the chain, also called dimer (5); dimeric peptide (5)) [CGA-WLA-YRPK dimer (N-ter)]", 1),
    ("[βAla]WLAYPDSVPYGSGC (also: homodimer, disulfide at 15, other end not in the chain, C-terminally disulfide-linked homodimer made from monomer (9*); also called dimer (1); dimeric peptide (1)) [βA-WLA-YGSGC dimer (C-ter)]", 0.9),
]

Prompt: Entry under review: C(Cam)GAWLAYPDSVPYRPK(Biotin) (also called monomer (10); monomeric peptide (10)) [CcamGA-WLA-YRPK-bio] . Reported Etop pAKT inhib?
Response: 1.06
